Entry source: the Human Domainome abundance scans (Beltran et al. 2025)

B1: Zinc finger homeobox protein 3, residues 2244 to 2299; numbered along this chain, Q15911 (parent)
chain: SSRTRFTDYQLRVLQDFFDANAYPKDDEFEQLSNLLNLPTRVIVVWFQNARQKARK

# Variants of: B1
# Method Summary: abundance fitness (aPCA) (normalised: wild type 0, dead -1); higher = more abundant; growth selection in yeast, the domain comes from the species named
# Measurement Setup: Homo sapiens
Lab note: class by abundance fitness, see range A = under -0.3, range B = from -0.3 up to -0.04, range C = -0.04 and over

Field: example entries. Status: answers known.
[[record]]
variant_string = "Q15E"
classification = "range C"

[[record]]
variant_string = "L32Y"
classification = "range B"

[[record]]
variant_string = "D19K"
classification = "range B"

[[record]]
variant_string = "D8C"
classification = "range C"

[[record]]
variant_string = "N21H"
classification = "range C"

[[record]]
variant_string = "D27M"
classification = "range C"

[[record]]
variant_string = "T4F"
classification = "range C"

[[record]]
variant_string = "Y9M"
classification = "range C"

[[record]]
variant_string = "T7K"
classification = "range B"

[[record]]
variant_string = "Q31C"
classification = "range C"


Enquiry: Which bin should I file "S33N" under?
Return: range A

Enquiry: Which bin should I file "S33R" under?
Return: range B

Enquiry: Which bin should I file "Q15K" under?
Return: range B

Enquiry: Which bin should I file "E28M" under?
Return: range A

Enquiry: Which bin should I file "Y23W" under?
Return: range C
